# tested.target: the molecule itself
# experiment: SDS-resistant oligomer detection by SDS-PAGE
value.type: binding result

INSERT INTO results (protein, value_type, observed_result) VALUES
  ('NPM1(1–160) (domain or fragment, UniProt P06748 1-160, looked up) MEDSMDMDMSPLRPQNYLFGCELKADKDYHFKVDNDENEHQLSLRTVSLGAGAKDELHIVEAEAMNYEGSPIKVTLATLKMSVQPTVSLGGFEITPPVVLRLKCGSGPVHISGQHLVAVEEDAESEDEEEEDVKLLSISGKRSAPGGGSKVPQKKVKLAA', 'binding result', 'binds'),
  ('NPM1(1–130) (domain or fragment, UniProt P06748 1-130, looked up) MEDSMDMDMSPLRPQNYLFGCELKADKDYHFKVDNDENEHQLSLRTVSLGAGAKDELHIVEAEAMNYEGSPIKVTLATLKMSVQPTVSLGGFEITPPVVLRLKCGSGPVHISGQHLVAVEEDAESEDEEE', 'binding result', 'binds'),
  ('NPM1(1–117) (domain or fragment, UniProt P06748 1-117, looked up) MEDSMDMDMSPLRPQNYLFGCELKADKDYHFKVDNDENEHQLSLRTVSLGAGAKDELHIVEAEAMNYEGSPIKVTLATLKMSVQPTVSLGGFEITPPVVLRLKCGSGPVHISGQHLV', 'binding result', 'binds'),
  ('NPM1(1–140) (domain or fragment, UniProt P06748 1-140, looked up) MEDSMDMDMSPLRPQNYLFGCELKADKDYHFKVDNDENEHQLSLRTVSLGAGAKDELHIVEAEAMNYEGSPIKVTLATLKMSVQPTVSLGGFEITPPVVLRLKCGSGPVHISGQHLVAVEEDAESEDEEEEDVKLLSISG', 'binding result', 'binds'),
  ('NPM1(1–188) (domain or fragment, UniProt P06748 1-188, looked up) MEDSMDMDMSPLRPQNYLFGCELKADKDYHFKVDNDENEHQLSLRTVSLGAGAKDELHIVEAEAMNYEGSPIKVTLATLKMSVQPTVSLGGFEITPPVVLRLKCGSGPVHISGQHLVAVEEDAESEDEEEEDVKLLSISGKRSAPGGGSKVPQKKVKLAADEDDDDDDEEDDDEDDDDDDFDDEEAEE', 'binding result', 'binds');

Please examine the following record next.
(Q) Supply recorded binding result for NPM1(1–150) (domain or fragment, UniProt P06748 1-150, looked up) MEDSMDMDMSPLRPQNYLFGCELKADKDYHFKVDNDENEHQLSLRTVSLGAGAKDELHIVEAEAMNYEGSPIKVTLATLKMSVQPTVSLGGFEITPPVVLRLKCGSGPVHISGQHLVAVEEDAESEDEEEEDVKLLSISGKRSAPGGGSK here.
(A) binds
